Assay method text: physchem
Condition description: organic solvent or mixture
Structures can show the parent of a compound that is named as a salt.
Measurement name: solubility (mg/mL)
Just the number please, in mg/mL, no unit attached.

Q) Need solubility of COc1ccc([C@@H]2Sc3ccccc3N(CCN(C)C)C(=O)[C@@H]2OC(C)=O)cc1 [diltiazem hydrochloride, reference compound] , thanks.
A) 79
